The values you see were collected from patent US20240099997A1.

target-or-test-system: UniProt P68082
Sequence (P68082 whole entry): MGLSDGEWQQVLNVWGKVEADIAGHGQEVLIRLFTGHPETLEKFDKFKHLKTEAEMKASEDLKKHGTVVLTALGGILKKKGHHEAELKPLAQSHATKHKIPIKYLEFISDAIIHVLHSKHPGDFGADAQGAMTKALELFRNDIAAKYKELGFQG
measured-quantity: Kd (µM)
Report as a plain number; the unit µM is understood.

## Task Given the entry N#CN1CCSCC1 , what Kd was observed with UniProt P68082?
## Result 2570
